Measured IC50, listed per entry.
Test system: HT29 cells
experimental.protocol: Antiproliferative activity against HT29 cells (Cell Titer-Lumi, ATP content)
Format: cell-based
measurement.parameters: Homo sapiens, HT-29, 72 after compound addition, read-out: HT-29 cells Anti-proliferative activity (IC50 for the inhibition against HT-29 cell growth)
Method: Example 343. Assay for Antiproliferative Activity Against HT29 Cells 3000 HT29 cells were seed in a 384-well plate (Fisher 142762). After the cells adhered to the wall overnight, the compounds diluted in a gradient were added. 72 later, Cell Titer-Lumi (Beyotime C0068XL) was added to determine the content of ATP in the cells. The growth of the cells was evaluated, and the IC50 for the inhibition of the compounds against cell growth was calculated.

# compound, measured.on, IC50
measured = [
    ("C=CCn1c(=O)c2cnc(Nc3ccc(N4CCC5(CCNCC5)CC4)cc3)nc2n1-c1ccc(=O)n(C(C)C)n1 [Compound 181]", "HT29 cells", "1000 to 3000 nM"),
    ("C=CCn1c(=O)c2cnc(Nc3ccc(N4CCC(N5CCOCC5)CC4)cc3)nc2n1-c1ccc(=O)n(C(C)C)n1 [Compound 148]", "HT29 cells", "≤ 1000 nM"),
    ("CCn1c(=O)c2cnc(Nc3ccc(N4CCN(C)CC4)c(C)c3)nc2n1-c1cc(F)c(=O)n(C(C)C)c1 [Compound 316]", "HT29 cells", "≤ 1000 nM"),
    ("C=CCn1c(=O)c2cnc(Nc3ccc(N4CCC(N)CC4)cc3)nc2n1-c1ccc(=O)n(C(C)C)n1 [Compound 101]", "HT29 cells", "1000 to 3000 nM"),
]

---

Measured pIC50 on Wee-1 kinase (Homo sapiens) follows.
Sequence (P30291 whole entry): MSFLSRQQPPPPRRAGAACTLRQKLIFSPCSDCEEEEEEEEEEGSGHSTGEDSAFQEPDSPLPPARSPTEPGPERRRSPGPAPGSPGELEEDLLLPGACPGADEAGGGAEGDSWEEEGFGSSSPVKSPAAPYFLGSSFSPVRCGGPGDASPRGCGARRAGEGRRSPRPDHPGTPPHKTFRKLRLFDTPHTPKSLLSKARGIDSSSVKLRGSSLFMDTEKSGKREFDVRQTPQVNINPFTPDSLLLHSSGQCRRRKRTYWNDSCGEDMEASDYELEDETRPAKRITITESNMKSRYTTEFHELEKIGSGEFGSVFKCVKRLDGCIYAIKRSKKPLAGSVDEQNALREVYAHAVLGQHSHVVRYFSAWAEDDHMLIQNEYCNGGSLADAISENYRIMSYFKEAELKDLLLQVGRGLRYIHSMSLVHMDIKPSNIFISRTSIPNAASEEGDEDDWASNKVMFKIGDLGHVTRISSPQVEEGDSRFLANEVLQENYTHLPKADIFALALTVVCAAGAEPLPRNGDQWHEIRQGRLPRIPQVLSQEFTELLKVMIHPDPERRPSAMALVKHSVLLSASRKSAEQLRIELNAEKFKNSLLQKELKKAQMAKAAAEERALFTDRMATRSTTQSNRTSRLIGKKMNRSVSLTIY
pIC50: −log10 of the molar value.

# structure.smiles, pIC50
data = [
    ("C=CCn1c(=O)c2cnc(Nc3cc(N4CCN(C(C)C)CC4)c4ccn(C5CC5)c4c3)nc2n1-c1ccc(=O)n(C(C)C)n1", "≥ 7.52"),
    ("C=CCn1c(=O)c2cnc(Nc3ccc4c(N5CCN(C)CC5)c[nH]c4c3)nc2n1-c1ccc(=O)n(C(C)C)n1", "≥ 7.52"),
    ("C=CCn1c(=O)c2cnc(Nc3ccc(N4CCN(C)CC4)cc3)nc2n1-c1ccc(=O)n(CC)n1", "< 7.00"),
    ("C=CCn1c(=O)c2cnc(Nc3ccc(N4CCC(N5CCCCC5)CC4)c(C)c3)nc2n1-c1ccc(=O)n(C(C)C)n1", "≥ 7.52"),
    ("C=CCn1c(=O)c2cnc(Nc3cccc(C4CCN(C)CC4)c3)nc2n1-c1ccc(=O)n(C(C)C)n1", "≥ 7.52"),
    ("C=CCn1c(=O)c2cnc(Nc3cc(F)cc(C4CCNCC4)c3)nc2n1-c1ccc(=O)n(C(C)C)n1", "≥ 7.52"),
    ("C=CCn1c(=O)c2cnc(Nc3ccc(C4CCNCC4)cc3)nc2n1-c1ccc(=O)n(C(C)C)n1", "≥ 7.52"),
]

---

System: HT29 cells
experimental.protocol: Antiproliferative activity against HT29 cells (Cell Titer-Lumi, ATP content)
Type: cell-based
measurement.parameters: Homo sapiens, HT-29, 72 after compound addition, read-out: HT-29 cells Anti-proliferative activity (IC50 for the inhibition against HT-29 cell growth)
pIC50: −log10 of the molar value.
Measured pIC50, listed per entry.

# compound, pIC50
measured = [
    ("C=CCn1c(=O)c2cnc(Nc3ccc4c(c3)C3(CC3)CN(C)C4)nc2n1-c1ccc(=O)n(C(C)C)n1 [Compound 235]", "≥ 6.00"),
    ("C=CCn1c(=O)c2cnc(Nc3ccc(N4CC5(CNC5)C4)cc3)nc2n1-c1ccc(=O)n(C(C)C)n1 [Compound 154]", "5.52 to 6.00"),
    ("CC(C)n1c(=O)c2cnc(Nc3ccc4c(c3)CN(C)CC43CC3)nc2n1-c1ccc(=O)n(C(C)(C)C)c1 [Compound 337]", "≥ 6.00"),
    ("C=CCn1c(=O)c2cnc(Nc3ccc4c(c3)CNCC4(F)F)nc2n1-c1ccc(=O)n(C(C)C)n1 [Compound 240]", "≥ 6.00"),
    ("CCn1c(=O)c2cnc(Nc3ccc4c(c3)CN(C)CC43CC3)nc2n1-c1cc(F)c(=O)n(C(C)C)c1 [Compound 318]", "≥ 6.00"),
    ("C=CCn1c(=O)c2cnc(Nc3ccc(N4C[C@@H](C)N(C)[C@@H](C)C4)c(Cl)c3)nc2n1-c1ccc(=O)n(C(C)C)n1 [Compound 121]", "≥ 6.00"),
    ("C=CCn1c(=O)c2cnc(Nc3cc(N4CCN(C(C)C)CC4)c4ccn(C)c4c3)nc2n1-c1ccc(=O)n(C(C)C)n1 [Compound 256]", "≥ 6.00"),
    ("Cc1cc(Nc2ncc3c(=O)n(C(C)C)n(-c4ccc(=O)n(C(C)C)c4)c3n2)ccc1N1CCN(C)CC1 [Compound 304]", "≥ 6.00"),
    ("CCn1c(=O)c2cnc(Nc3ccc(C4CCN(C)CC4)c(C)c3)nc2n1-c1ccc(=O)n(C(C)(C)C)c1 [Compound 332]", "≥ 6.00"),
    ("C=CCn1c(=O)c2cnc(Nc3ccc(N4CCN(C5CCC5)CC4)cc3)nc2n1-c1ccc(=O)n(C(C)C)n1 [Compound 34]", "≥ 6.00"),
    ("C=CCn1c(=O)c2cnc(Nc3cc(Cl)c(N4CCN(C)CC4)c(Cl)c3)nc2n1-c1ccc(=O)n(C(C)C)n1 [Compound 62]", "≥ 6.00"),
    ("C=CCn1c(=O)c2cnc(Nc3ccc(N4CCN(C)CC4)cc3)nc2n1-c1ccc(=O)n(CC2CC2)n1 [Compound 16]", "5.52 to 6.00"),
    ("C=CCn1c(=O)c2cnc(Nc3ccc(N4CCC(NC)CC4)c(OC)c3)nc2n1-c1ccc(=O)n(C(C)C)n1 [Compound 106]", "≥ 6.00"),
    ("C=CCn1c(=O)c2cnc(Nc3ccc(N4CCN(C)CC4)cc3)nc2n1-c1ccc(=O)n(CC)n1 [Compound 2]", "< 5.52"),
]

---

Test system: HT29 cells
experimental.protocol: Antiproliferative activity against HT29 cells (Cell Titer-Lumi, ATP content)
Format: cell-based
measurement.parameters: Homo sapiens, HT-29, 72 after compound addition, read-out: HT-29 cells Anti-proliferative activity (IC50 for the inhibition against HT-29 cell growth)
Measured IC50, listed per entry.
property: IC50

# structure.smiles, reported
data = [
    ("C=CCn1c(=O)c2cnc(Nc3ccc(N4CC(N5CCCC5)C4)c(OC)c3)nc2n1-c1ccc(=O)n(C(C)C)n1", "≤ 1 µM"),
    ("C=CCn1c(=O)c2cnc(Nc3ccc(N4CCNCC4)c(Cl)c3)nc2n1-c1ccc(=O)n(C(C)C)c1", "≤ 1 µM"),
    ("C=CCn1c(=O)c2cnc(Nc3ccc(N4CCN(C)CC4)cc3)nc2n1-c1cc(C#N)c(=O)n(C(C)C)c1", "> 3 µM"),
    ("C=CCn1c(=O)c2cnc(Nc3ccc(N4CCC(C)(N(C)C)CC4)cc3)nc2n1-c1ccc(=O)n(C(C)C)n1", "≤ 1 µM"),
]

---

pIC50: −log10 of the molar value.
Measured pIC50 on Wee-1 kinase (Homo sapiens) follows.
property: pIC50

# structure.smiles, measured.on, reported
rows = [
    ("C=CCn1c(=O)c2cnc(Nc3ccc(N4CC5(CCCCN5C)C4)c(C)c3)nc2n1-c1ccc(=O)n(C(C)C)n1", "Wee-1 kinase (Homo sapiens)", "7.00 to 7.52"),
    ("C=CCn1c(=O)c2cnc(Nc3cc(F)cc(C4CCN(C)CC4)c3)nc2n1-c1ccc(=O)n(C(C)C)n1", "Wee-1 kinase (Homo sapiens)", "≥ 7.52"),
    ("C=CCn1c(=O)c2cnc(Nc3cc(N4CCN(C)CC4)c4ccn(C)c4c3)nc2n1-c1ccc(=O)n(C(C)C)n1", "Wee-1 kinase (Homo sapiens)", "≥ 7.52"),
    ("C=CCn1c(=O)c2cnc(Nc3ccc(N4CCC(C)(NC)CC4)c(OC)c3)nc2n1-c1ccc(=O)n(C(C)C)n1", "Wee-1 kinase (Homo sapiens)", "≥ 7.52"),
]

---

experimental.protocol: Pharmacokinetic evaluation in mice
Format: in vivo, male ICR mice
measurement.parameters: male, ICR, mouse, plasma, po, 10 mg/kg, 0.5% CMC-Na suspension

# molecule, Cmax / ng/mL
records = [
    ("C=CCn1c(=O)c2cnc(Nc3ccc(N4CCN(C)CC4)cc3)nc2n1-c1cccc(C(C)(C)O)n1 [AZD-1775, reference compound]", 247),
    ("C=CCn1c(=O)c2cnc(Nc3ccc(N4CCN(C)CC4)cc3)nc2n1-c1ccc(=O)n(C(C)C)n1 [Compound 3]", 533),
]

---

Tested on: HT29 cells
experimental.protocol: Antiproliferative activity against HT29 cells (Cell Titer-Lumi, ATP content)
Assay type: cell-based
measurement.parameters: Homo sapiens, HT-29, 72 after compound addition, read-out: HT-29 cells Anti-proliferative activity (IC50 for the inhibition against HT-29 cell growth)

# structure.smiles, IC50
rows = [
    ("C=CCn1c(=O)c2cnc(Nc3cc(Cl)c(N4CCNCC4)c(OC)c3)nc2n1-c1ccc(=O)n(C(C)C)n1", "≤ 1000 nM"),
    ("C=CCn1c(=O)c2cnc(Nc3ccc(N4CCC(N)CC4)c(C)c3)nc2n1-c1ccc(=O)n(C(C)C)n1", "≤ 1000 nM"),
    ("C=CCn1c(=O)c2cnc(Nc3cc(N4CCN(C)CC4)c4cc[nH]c4c3)nc2n1-c1ccc(=O)n(C(C)C)n1", "≤ 1000 nM"),
    ("C=CCn1c(=O)c2cnc(Nc3ccc(N4CCC5(CNC5)C4)cc3)nc2n1-c1ccc(=O)n(C(C)C)n1", "1000 to 3000 nM"),
    ("C=CCn1c(=O)c2cnc(Nc3ccc(N4CCC5(CCN(C)CC5)CC4)cc3)nc2n1-c1ccc(=O)n(C(C)C)n1", "≤ 1000 nM"),
    ("C=CCn1c(=O)c2cnc(Nc3ccc(N4CCN(C5CC5)CC4)cc3)nc2n1-c1ccc(=O)n(C(C)C)n1", "≤ 1000 nM"),
    ("C=CCn1c(=O)c2cnc(Nc3ccc(N4CCN(C)CC4)cc3)nc2n1-c1ccc(=O)n(CC(F)F)n1", "1000 to 3000 nM"),
    ("C=CCn1c(=O)c2cnc(Nc3ccc4c(c3)CN(C)C4(C)C)nc2n1-c1ccc(=O)n(C(C)C)n1", "≤ 1000 nM"),
    ("C=CCn1c(=O)c2cnc(Nc3ccc(N4CCC5(CCN(C)CC5)CC4)c(C)c3)nc2n1-c1ccc(=O)n(C(C)C)n1", "≤ 1000 nM"),
    ("C=CCn1c(=O)c2cnc(Nc3ccc4c(c3)C(C)(C)CN(C(C)C)C4)nc2n1-c1ccc(=O)n(C(C)C)n1", "≤ 1000 nM"),
    ("C=CCn1c(=O)c2cnc(Nc3cc(C)c(N4CCN(C)CC4)c(Cl)c3)nc2n1-c1ccc(=O)n(C(C)C)n1", "≤ 1000 nM"),
    ("C=CCn1c(=O)c2cnc(Nc3ccc4c(c3)CNC4)nc2n1-c1ccc(=O)n(C(C)C)n1", "1000 to 3000 nM"),
    ("CC(C)n1cc(-n2c3nc(Nc4ccc5c(c4)CN(C)CC54CC4)ncc3c(=O)n2C2CC2)cc(F)c1=O", "≤ 1000 nM"),
    ("C=CCn1c(=O)c2cnc(Nc3ccc4c(c3)CNCC4)nc2n1-c1ccc(=O)n(C(C)C)n1", "≤ 1000 nM"),
    ("CN1Cc2cc(Nc3ncc4c(=O)n(C5CC5)n(-c5ccc(=O)n(C(C)(C)C)c5)c4n3)ccc2C2(CC2)C1", "≤ 1000 nM"),
    ("C=CCn1c(=O)c2cnc(Nc3cc(N4CCC(N(C)C)CC4)c4ccn(C)c4c3)nc2n1-c1ccc(=O)n(C(C)C)n1", "≤ 1000 nM"),
]
